Target: hGPR119 (Homo sapiens)
Construct: expressed in transfected cells; host or cells: CHO
Sequence (Q8TDV5 whole entry): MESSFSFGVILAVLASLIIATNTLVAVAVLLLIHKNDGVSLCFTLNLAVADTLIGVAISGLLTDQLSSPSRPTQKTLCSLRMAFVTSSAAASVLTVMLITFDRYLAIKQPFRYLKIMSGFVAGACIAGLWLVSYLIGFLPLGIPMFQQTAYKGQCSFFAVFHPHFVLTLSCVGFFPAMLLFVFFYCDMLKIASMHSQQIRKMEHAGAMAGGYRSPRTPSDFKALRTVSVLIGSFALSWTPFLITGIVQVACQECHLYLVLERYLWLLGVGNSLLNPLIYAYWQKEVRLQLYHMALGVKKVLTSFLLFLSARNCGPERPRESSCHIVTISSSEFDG
Test: In vitro cyclic AMP assay (Cisbio dynamic 2 HTRF kit) in CHO-hGPR119 cells
Assay type: cell-based
Conditions: 1 h, cAMP, compound at 1 μM, 60 min, read-out: Induction (% induction at 1 μM)
Assay metric: activation at 1 µM (%)
One number for each entry, in %.

The examples below pair each entry with its known result.
{"columns": ["Compound", "Unit", "activation at 1 µM"],
 "data": [
  ["CC(Oc1nc2ccc(-c3ccc(S(C)(=O)=O)cc3)nc2s1)C1CCN(C(=O)OC2(C)CC2)CC1 (stereo not shown) [Compound 1117]", "%", 2],
  ["CC(C)c1noc(N2CCC(COc3nc4ccc(-c5ccc(S(C)(=O)=O)cc5)nc4s3)CC2)n1 [Compound 1006]", "%", 31],
  ["CC(C)c1noc(N2CCC(C(C)Oc3nc4ccc(-c5ccc(C(=O)N(C)C)cc5F)nc4s3)CC2)n1 (stereo not shown) [Compound 1046]", "%", 1]
]}

API: value(readout= activation at 1 µM, system= hGPR119 (Homo sapiens), query= CC(C)c1noc(C2CCN(c3nc4ccc(-c5ccc(C(=O)N(C)C)cc5)nc4s3)CC2)n1 [Compound 1022] ) 35

The origin of these recorded values is patent US10526345B2.
